- measurement.protocol: in vitro
- run.conditions: human, Caco-2, Efflux ratio Caco-2 cells
measured.attribute: efflux ratio at 2 h

>>> readout_value("FC(F)(F)c1ccc2c(c1)N(CCCCN1CCCCC1)c1ccccc1S2")
0.68

I. CN1CCN(CCCN2c3ccccc3Sc3ccc(Cl)cc32)CC1
II. OCCOCCOCCN1CCN(CC(O)CN2c3ccccc3Sc3ccc(C(F)(F)F)cc32)CC1 (centres unmarked)
III. COCCc1ccc(OCC(O)CNC(C)C)cc1 (centres unmarked)
Number of molecules to sort: 3. Sort criterion: efflux ratio at 2 h, ascending. A complete answer lists every label in the requested sequence.
I, III, II

----------
- Tested on: P-gp (MDR1)
- measurement.protocol: in vitro
- run.conditions: dog, MDCK-MDR1
measured.attribute: Papp B→A at 60 min (×10⁻⁶ cm/s)
# number only, unit ×10⁻⁶ cm/s dropped from output

Reported Papp B→A at 60 min of c1ccc2c(c1)Nc1ccccc1S2 [10H-phenothiazine] : 38
